PROTOCOL DESCRIPTION: Concentration-response cell viability assay, Vero E6 cells
Type: cell-based, African green monkey
CONDITIONS: African green monkey, noninfected, CC50, Vero E6 cells

{"MOLECULE": "COc1ccc2c(O[C@@H]3C[C@H]4C(=O)N[C@]5(C(=O)NS(=O)(=O)C6CC6)C[C@H]5/C=C\\CCCCN(C)C(=O)[C@@H]4C3)cc(-c3nc(C(C)C)cs3)nc2c1C", "UNIT STRING": "µM", "CENSOR SYMBOL": "=", "CC50": 59}
{"MOLECULE": "C=C[C@@H]1C[C@]1(NC(=O)[C@@H]1C[C@@H](Oc2ncc(OC)c3ccc(Cl)cc23)CN1C(=O)[C@@H](NC(=O)OC(C)(C)C)C(C)(C)C)C(=O)NS(=O)(=O)C1CC1", "UNIT STRING": "µM", "CENSOR SYMBOL": "=", "CC50": 263}
{"MOLECULE": "CCC[C@H](NC(=O)[C@@H]1[C@H]2CCC[C@H]2CN1C(=O)[C@@H](NC(=O)[C@@H](NC(=O)c1cnccn1)C1CCCCC1)C(C)(C)C)C(=O)C(=O)NC1CC1", "UNIT STRING": "µM", "CENSOR SYMBOL": ">", "CC50": 432}
{"MOLECULE": "COc1ccc2c(O[C@@H]3C[C@H]4C(=O)N[C@]5(C(=O)NS(=O)(=O)C6CC6)C[C@H]5/C=C\\CCCCC[C@H](CC(=O)N5CCCC(F)(F)C5)C(=O)N4C3)cc(-c3nc(C(C)C)cs3)nc2c1C", "UNIT STRING": "µM", "CENSOR SYMBOL": "=", "CC50": 56}
{"MOLECULE": "CC(C)(C)NC(=O)N[C@H](C(=O)N1C[C@H]2[C@@H]([C@H]1C(=O)NC(CC1CCC1)C(=O)C(N)=O)C2(C)C)C(C)(C)C (stereo partly drawn)", "UNIT STRING": "µM", "CENSOR SYMBOL": ">", "CC50": 1210}
{"MOLECULE": "CCCC[C@H](NC(=O)[C@@H]1[C@@H]2[C@H](CN1C(=O)[C@@H](NC(=O)NC1(CS(=O)(=O)C(C)(C)C)CCCCC1)C(C)(C)C)C2(C)C)C(=O)C(=O)NC1CC1", "UNIT STRING": "µM", "CENSOR SYMBOL": "=", "CC50": 269}

====

Tested on: Huh7.5 cells
PROTOCOL DESCRIPTION: Concentration-response cell viability assay, Huh7.5 cells
Assay type: cell-based, human
CONDITIONS: noninfected
RESULT TYPE: CC50

{"SMI": "C=C[C@@H]1C[C@]1(NC(=O)[C@@H]1C[C@@H]2CN1C(=O)[C@H](C(C)(C)C)NC(=O)O[C@@H]1C[C@H]1CCCCCc1nc3ccc(OC)cc3nc1O2)C(=O)NS(=O)(=O)C1CC1.O", "OBSERVED VALUE": "133 µM"}

====

PROTOCOL DESCRIPTION: Concentration-response cell viability assay, Huh7.5 cells
Type: cell-based, human
CONDITIONS: human, noninfected
RESULT TYPE: CC50 (µM)

{"COMPOUND": "COc1ccc2c(O[C@@H]3C[C@H]4C(=O)N[C@]5(C(=O)NS(=O)(=O)C6CC6)C[C@H]5/C=C\\CCCCN(C)C(=O)[C@@H]4C3)cc(-c3nc(C(C)C)cs3)nc2c1C [Simeprevir, simeprevir]", "OBSERVED VALUE": 33}
{"COMPOUND": "CC(C)(C)NC(=O)N[C@H](C(=O)N1C[C@H]2[C@@H]([C@H]1C(=O)NC(CC1CCC1)C(=O)C(N)=O)C2(C)C)C(C)(C)C (some centres unmarked) [Boceprevir, boceprevir]", "OBSERVED VALUE": 701}

====

Test system: Vero E6 cells
PROTOCOL DESCRIPTION: Concentration-response cell viability assay, Vero E6 cells
Assay type: cell-based, African green monkey
CONDITIONS: noninfected
Here the recorded CC50 is given for each entry.

{"SMI": "C=C[C@@H]1C[C@]1(NC(=O)[C@@H]1C[C@@H]2CN1C(=O)[C@H](C(C)(C)C)NC(=O)O[C@@H]1C[C@H]1CCCCCc1nc3ccc(OC)cc3nc1O2)C(=O)NS(=O)(=O)C1CC1.O", "CENSOR SYMBOL": "=", "CC50 (µM)": 239}
{"SMI": "CC(C)(C)OC(=O)N[C@H]1CCCCC/C=C\\[C@@H]2C[C@@]2(C(=O)NS(=O)(=O)C2CC2)NC(=O)[C@@H]2C[C@@H](OC(=O)N3Cc4cccc(F)c4C3)CN2C1=O", "CENSOR SYMBOL": ">", "CC50 (µM)": 243}
{"SMI": "CC(C)(C)[C@@H]1NC(=O)O[C@@H]2CCC[C@H]2OC/C=C/C(F)(F)c2nc3ccccc3nc2O[C@@H]2C[C@@H](C(=O)N[C@]3(C(=O)NS(=O)(=O)C4(C)CC4)C[C@H]3C(F)F)N(C2)C1=O", "CENSOR SYMBOL": ">", "CC50 (µM)": 268}
{"SMI": "CCCCCOc1ccc(NC(=S)NC(=O)c2cccnc2)cc1C(F)(F)F", "CENSOR SYMBOL": ">", "CC50 (µM)": 429}
{"SMI": "Cc1cnc(C(=O)N[C@H]2CCCCC/C=C\\[C@@H]3C[C@@]3(C(=O)NS(=O)(=O)C3CC3)NC(=O)[C@@H]3C[C@@H](Oc4nc5ccccc5c5ccccc45)CN3C2=O)cn1", "CENSOR SYMBOL": "=", "CC50 (µM)": 123}
{"SMI": "CC[C@@H]1C[C@]1(NC(=O)[C@@H]1C[C@@H]2CN1C(=O)[C@H](C(C)(C)C)NC(=O)OCC(C)(C)CCCCc1cccc3c1CN(C3)C(=O)O2)C(=O)NS(=O)(=O)C1CC1", "CENSOR SYMBOL": "=", "CC50 (µM)": 171}

====

Test system: SARS-CoV-2
PROTOCOL DESCRIPTION: Short-term assay for interactions of PIs and remdesivir, Vero E6 cells
Type: cell-based
CONDITIONS: Vero E6 and A549-hACE2 data sets
RESULT TYPE: interaction with remdesivir (method of Chou and Talalay, CompuSyn)

{"COMPOUND": "CCCC[C@H](NC(=O)[C@@H]1[C@@H]2[C@H](CN1C(=O)[C@@H](NC(=O)NC1(CS(=O)(=O)C(C)(C)C)CCCCC1)C(C)(C)C)C2(C)C)C(=O)C(=O)NC1CC1", "OBSERVED VALUE": "primarily antagonistic"}
{"COMPOUND": "Cc1cnc(C(=O)N[C@H]2CCCCC/C=C\\[C@@H]3C[C@@]3(C(=O)NS(=O)(=O)C3CC3)NC(=O)[C@@H]3C[C@@H](Oc4nc5ccccc5c5ccccc45)CN3C2=O)cn1", "OBSERVED VALUE": "primarily synergistic"}
{"COMPOUND": "CC(C)(C)NC(=O)N[C@H](C(=O)N1C[C@H]2[C@@H]([C@H]1C(=O)NC(CC1CCC1)C(=O)C(N)=O)C2(C)C)C(C)(C)C (stereo partly shown)", "OBSERVED VALUE": "primarily antagonistic"}
{"COMPOUND": "C=C[C@@H]1C[C@]1(NC(=O)[C@@H]1C[C@@H]2CN1C(=O)[C@H](C(C)(C)C)NC(=O)O[C@@H]1C[C@H]1CCCCCc1nc3ccc(OC)cc3nc1O2)C(=O)NS(=O)(=O)C1CC1.O", "OBSERVED VALUE": "primarily synergistic"}
